# Test system: L1210 leukemia ip in BDF1 mice, survival T/C
# Assay Summary: NCI In Vivo Anticancer Drug Screen. Data for tumor model L1210 Leukemia (intraperitoneal) in B6D2F1 (BDF1) mice
# Condition Parameters: endpoint: mean survival time; dose: 100.0 mg/kg/injection; schedule: Q01DX009 (ip); vehicle: saline with Tween-80; higher = longer survival
Inconclusive results and toxic doses are left out.
Kindly state T/C for each of the entries shown.

Any idea what T/C was measured for c1ccc([Si](OO[Si](c2ccccc2)(c2ccccc2)c2ccccc2)(c2ccccc2)c2ccccc2)cc1 ? 86 % of control

Any idea what T/C was measured for CCCCCCOc1ccc(/C=N\N=C\c2ccc(OCCCCCC)cc2)cc1 ? 92 % of control

Any idea what T/C was measured for Cc1cccc(Cl)c1NC(=O)Nc1cccc(O)c1 ? 100 % of control

Any idea what T/C was measured for Cc1ccnc(NC(=O)Nc2ccccc2F)c1 ? 92 % of control

Any idea what T/C was measured for C=CC1CN2CCC1CC2C(O)c1ccnc2ccccc12 (stereo unspecified) (tested in a mixture with another compound) ? 93 % of control

Any idea what T/C was measured for CCCC1(CCC)NC(=O)N(CC(=O)OCC)C1=O ? 94 % of control

Any idea what T/C was measured for Cc1cccc(C)c1N(COCC(C)C)C(=O)CCl ? 100 % of control

Any idea what T/C was measured for NC(=O)c1ccccc1C(Cl)(Cl)Cl ? 89 % of control

Any idea what T/C was measured for CC(C)=CCC/C(C)=C/CN1C(=O)CC(C)=C(C)C1=O ? 97 % of control

Any idea what T/C was measured for CC1=CC(=O)C(c2ccccc2)CC1 (stereo unspecified) (tested in a mixture with another compound) ? 96 % of control

Any idea what T/C was measured for CC(=O)OC(CNCC(=O)O)C(Cl)(Cl)Cl (stereo unspecified) ? 90 % of control

###

Kindly state T/C for each of the entries shown.
# System: L1210 leukemia ip in BDF1 mice, survival T/C
# Assay Summary: NCI In Vivo Anticancer Drug Screen. Data for tumor model L1210 Leukemia (intraperitoneal) in B6D2F1 (BDF1) mice
# Condition Parameters: endpoint: mean survival time; dose: 400.0 mg/kg/injection; schedule: Q01DX009 (ip); vehicle: saline with Tween-80; higher = longer survival
Toxic doses and inconclusive results are not listed.

Any idea what T/C was measured for COC(=O)c1cc(C(=O)OC)c(C(=O)OC)cc1C(=O)OC ? 98 % of control

Any idea what T/C was measured for CSC(N)=Nc1ccc(C(=O)O)cc1 ? 97 % of control

Any idea what T/C was measured for Clc1ccc(C=NCCN=Cc2ccc(Cl)c(Cl)c2)cc1Cl ? 101 % of control

Any idea what T/C was measured for COCCCNc1ccc(S(=O)(=O)c2ccc(N)cc2)cc1 ? 97 % of control

Any idea what T/C was measured for C1=CCC(OC2CCCCO2)=CC1 (configuration not stated) ? 87 % of control

Any idea what T/C was measured for O=S(=O)(Nc1cc(Cl)ccc1Cl)c1ccc(Cl)cc1 ? 92 % of control

Any idea what T/C was measured for COc1ccc2nc(NCN3C(=O)c4ccccc4C3=O)sc2c1 ? 93 % of control

Any idea what T/C was measured for O=[N+]([O-])c1cccc(CO)c1-c1c(CO)cccc1[N+](=O)[O-] ? 101 % of control

Any idea what T/C was measured for Cc1nc2ccccc2c(=O)n1NC(=O)c1cc([N+](=O)[O-])cc([N+](=O)[O-])c1 ? 93 % of control

Any idea what T/C was measured for S=C(S)Nc1cccc2ccccc12 ? 104 % of control

Any idea what T/C was measured for O=C(O)Cc1cc2c(cc1I)OCO2 ? 109 % of control

Any idea what T/C was measured for c1ccc(CCc2ccncc2)cc1 ? 86 % of control
